# measured-target: T1, human PKC-iota kinase domain, primed active form (PKCιKD-2P) (human, UniProt P41743 248-596, phosphothreonine at 412 and 564 (pT412, pT564))
# T1 chain: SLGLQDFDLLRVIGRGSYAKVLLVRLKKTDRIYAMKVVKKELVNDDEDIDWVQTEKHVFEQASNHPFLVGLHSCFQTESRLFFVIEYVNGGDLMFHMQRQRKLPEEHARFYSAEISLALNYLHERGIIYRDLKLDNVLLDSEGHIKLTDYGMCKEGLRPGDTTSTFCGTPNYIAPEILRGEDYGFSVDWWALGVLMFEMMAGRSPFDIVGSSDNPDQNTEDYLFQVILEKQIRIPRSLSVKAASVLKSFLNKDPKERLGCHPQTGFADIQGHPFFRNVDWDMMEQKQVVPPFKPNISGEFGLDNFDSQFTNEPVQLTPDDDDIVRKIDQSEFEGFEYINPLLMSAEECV
# procedure-summary: FP
Non-standard residues stand in square brackets, D forms with d. No end group written: not given here. pS = N[C@@H](COP(=O)(O)O)C(=O)O
observation-type: pKd
Lab note — pKd values are minus log10 of concentrations in M.

Lookup: # get_value(readout='pKd', item= LAFQREGFGRQAMSEKRTK (peptide, UniProt Q8TEW0 816-834, looked up, also: fluorescein label (position not given here), source: synthetic peptide) [Par3CR3 S827A mutant peptide] )
Found: 6.16

Lookup: One more binder: LAAQAEGFGRQSMSEKRTK (also: fluorescein label (position not given here)) [Par3CR3 A-X-A mutant peptide (F-Q-R to A-Q-A, site 1 affinity arm)]
Found: 3.64

Lookup: One more binder: LAFQREGFGRQSMSEKRTK (peptide, UniProt Q8TEW0 816-834, looked up, also: fluorescein label (position not given here), also called wild-type Par3CR3; source: synthetic peptide) [human Par3 conserved region 3 peptide, residues 816-834 (Par3CR3)]
Found: 6.14

Lookup: One more binder: LAFQREGFGRQ[pS]MSEKRTK (also: fluorescein label (position not given here)) [phospho-S827 Par3 peptide (PKCι reaction product)]
Found: 3.94

Lookup: One more binder: LAFQREGFGRQSMSEAATK (also: fluorescein label (position not given here)) [Par3CR3 A-A-T mutant peptide (K-R-T to A-A-T, site 3 inhibitory arm)]
Found: 3.37
